- Test system: human PBMCs stimulated with LPS
- assay.summary: LPS-induced cytokine release in human PBMCs
- Format: cell-based
- run.conditions: PBMC, 0.11 ng/mL LPS, 4 h, read-out: IC50, TNF-α read-out, LPS stimulation
readout.name: IC50 (nM)
Response body: numeric value in nM, unit text excluded.

Task: Returns the measured IC50 for the input compound. Input: COc1cc2nn([C@@H]3CC[C@@H](O)C[C@H]3C)cc2cc1C(=O)Nc1cnc2cccnn12
Output: 39

====

- experimental.target: human recombinant IRAK4 protein (Homo sapiens (Human))
- assay.summary: IRAK4 enzyme assay (mass spectrometry readout)
- Format: biochemical
- run.conditions: 3 mM ATP, 0.2 nM enzyme; geometric mean of at least n=2, * single experiment
readout.name: pIC50
Note on pIC50: it is the negative log10 of concentration, concentration in mol/L.

- compound: "COc1cc2nn([C@H]3CC[C@H](n4ccnn4)CC3)cc2cc1C(=O)Nc1cnc2cccnn12"
  readout.name: "pIC50"
  measured.result: 9.15

Task: Returns the measured pIC50 for the input compound. Input: COc1cc2nn([C@H]3CCC(N(C)C(C)=O)C[C@@H]3C)cc2cc1C(=O)Nc1cnn2cccnc12 (single isomer, unassigned) [Example 63]
Output: 7.33

Task: Repeat for the following compound: COc1cc2nn(C3CCC4(CC3)CN(C(C)=O)C4)cc2cc1C(=O)Nc1cnc2cccnn12
Output: 9.15

Task: Repeat for the following compound: COc1cc2nn([C@H]3CCC(N(C)C(C)=O)C[C@@H]3C)cc2cc1C(=O)Nc1cnn2cccnc12 (single isomer, unassigned) [Example 62]
Output: 7.80

Task: Repeat for the following compound: COc1cc2nn([C@H]3CC[C@]4(CC3)CC(=O)N(C)C4)cc2cc1C(=O)Nc1cnc2cccnn12
Output: 9.30

Task: Repeat for the following compound: COc1cc2nn([C@H]3CCC[C@](C)(O)C3)cc2cc1C(=O)Nc1cnn2cccnc12 (single isomer, unassigned) [Example 53]
Output: 8.46

====

- experimental.target: IRAK4 auto-phosphorylation (Homo sapiens (Human), UniProt Q9NWZ3)
- Sequence (Q9NWZ3 whole entry): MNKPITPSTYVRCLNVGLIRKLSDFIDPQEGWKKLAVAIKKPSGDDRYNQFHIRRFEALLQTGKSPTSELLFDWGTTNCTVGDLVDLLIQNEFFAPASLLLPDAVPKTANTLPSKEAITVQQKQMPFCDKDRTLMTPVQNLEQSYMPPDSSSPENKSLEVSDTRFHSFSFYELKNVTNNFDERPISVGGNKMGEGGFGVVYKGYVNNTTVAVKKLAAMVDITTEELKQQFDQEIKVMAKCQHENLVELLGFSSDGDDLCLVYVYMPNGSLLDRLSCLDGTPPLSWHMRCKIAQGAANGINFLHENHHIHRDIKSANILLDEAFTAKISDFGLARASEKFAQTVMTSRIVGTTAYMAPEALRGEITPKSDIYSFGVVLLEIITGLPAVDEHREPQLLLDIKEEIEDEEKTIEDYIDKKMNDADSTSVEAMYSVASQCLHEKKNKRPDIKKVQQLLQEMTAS
- assay.summary: IRAK4 phosphorylation cell assay in IL-1β-stimulated Karpas-299 cells
- Type: cell-based
- run.conditions: IL-1β 22.7 ng/mL, pIRAK4 (Thr345/Ser346), geometric mean of at least 2 experiments
Returns: string. Value is 1.0 if measured IC50 is below 20 nM, and 0.0 if it is greater than or equal to it.

Here are 3 compounds together with their reported answers.
- compound: "CC(=O)N1CC2(CC[C@@H](n3cc4cc(C(=O)Nc5cnn6cccnc56)c(OC5CC5)cc4n3)[C@H](C)C2)C1 (single isomer, unassigned) [Example 28]"
  label.value: 0.0
- compound: "COc1cc2nn([C@H]3CCC[C@@H](O)[C@H]3C)cc2cc1C(=O)Nc1cnc2cccnn12 (single isomer, unassigned) [Example 105]"
  label.value: 0.0
- compound: "C[C@@]1(O)CCC[C@H](n2cc3cc(C(=O)Nc4cnn5cccnc45)c(OC4CC4)cc3n2)C1 (relative stereo) [Example 54]"
  label.value: 0.0

Task: Please state whether IC50 is below 20 nM for COc1cc2nn([C@@H]3CCC(N(C)C(C)=O)C[C@H]3C)cc2cc1C(=O)Nc1cnc2cccnn12 (single isomer, unassigned) [Example 37]
Output: 1.0

Task: Repeat for the following compound: COc1cc2nn([C@H]3CCC[C@@H](O)[C@H]3C)cc2cc1C(=O)Nc1cnc2cccnn12 (single isomer, unassigned) [Example 104]
Output: 0.0

Task: Repeat for the following compound: COc1cc2nn([C@H]3CC[C@H](N(C)C(=O)C4CC4)CC3)cc2cc1C(=O)Nc1cnn2cnccc12 [Example 96]
Output: 1.0

Task: Repeat for the following compound: COc1cc2nn([C@H]3CCC[C@H](O)[C@@H]3C)cc2cc1C(=O)Nc1cnc2cccnn12 (relative stereo) [Example 106]
Output: 1.0

Task: Repeat for the following compound: COc1cc2nn([C@H]3CC[C@@H](NC(=O)C4CC4)CC3)cc2cc1C(=O)Nc1cnn2cnccc12 [Example 27]
Output: 0.0

Task: Repeat for the following compound: COc1cc2nn([C@@H]3CCC4(C[C@@H]3C)CN(C(C)=O)C4)cc2cc1C(=O)Nc1cnc2cccnn12 (single isomer, unassigned) [Example 65]
Output: 0.0

Task: Repeat for the following compound: COc1cc2nn([C@H]3CC[C@]4(CC3)CC(=O)N(C)C4)cc2cc1C(=O)Nc1cnc2cccnn12 [Example 69]
Output: 0.0

Task: Repeat for the following compound: COc1cc2nn([C@@H]3CC[C@H](O)[C@@H](C)C3)cc2cc1C(=O)Nc1cnc2cccnn12 (single isomer, unassigned) [Example 82]
Output: 0.0

Task: Repeat for the following compound: COc1cc2nn([C@H]3CC[C@@]4(CC3)CC(=O)N(C)C4)cc2cc1C(=O)Nc1cnc2cccnn12 [Example 68]
Output: 0.0

====

- experimental.target: human recombinant IRAK4 protein (Homo sapiens (Human))
- assay.summary: IRAK4 enzyme assay (mass spectrometry readout)
- run.conditions: 3 mM ATP, 0.2 nM enzyme; geometric mean of at least n=2, * single experiment
Listing of entries alongside the reported pIC50.
Note on pIC50: it is the negative log10 of concentration, concentration in mol/L.

- molecule: "COc1cc2nn([C@H]3CC[C@H](O)C[C@@H]3C)cc2cc1C(=O)Nc1cnn2cccnc12 (single isomer, unassigned) [Example 39]"
  pIC50: 8.00
- molecule: "COc1cc2nn([C@@H]3CCC(N(C)C(C)=O)C[C@H]3C)cc2cc1C(=O)Nc1cnc2cccnn12 (single isomer, unassigned) [Example 37]"
  pIC50: 9.52
- molecule: "COc1cc2nn([C@H]3CCC[C@@H](O)C3)cc2cc1C(=O)Nc1cnc2cccnn12 (single isomer, unassigned) [Example 9]"
  pIC50: 8.80

Task: Returns the measured pIC50 for the input molecule. Input: COc1cc2nn(C3CCC4(CC3)COC(=O)N4C)cc2cc1C(=O)Nc1cnc2cccnn12 (single isomer, unassigned) [Example 74]
Output: 8.57

Task: Repeat for the following molecule: COc1cc2nn([C@@H]3CC[C@H](O)[C@@H](C)C3)cc2cc1C(=O)Nc1cnc2cccnn12 (single isomer, unassigned) [Example 83]
Output: 8.68

====

Listing of entries alongside the reported IC50.
- experimental.target: human recombinant IRAK4 protein (Homo sapiens (Human))
- assay.summary: IRAK4 enzyme assay (mass spectrometry readout)
- run.conditions: 3 mM ATP, 0.2 nM enzyme; geometric mean of at least n=2, * single experiment
Response body: numeric value in nM, unit text excluded.

- molecule: "COc1cc2nn([C@@H]3CCC4(C[C@H]3C)CN(C(C)=O)C4)cc2cc1C(=O)Nc1cnc2cccnn12 (single isomer, unassigned) [Example 67]"
  IC50 [nM]: 4.3
- molecule: "COc1cc2nn([C@H]3CCC[C@@H](O)[C@H]3C)cc2cc1C(=O)Nc1cnc2cccnn12 (single isomer, unassigned) [Example 104]"
  IC50 [nM]: 1.1
- molecule: "COc1cc2nn([C@@H]3CCC(N(C)C(C)=O)C[C@H]3C)cc2cc1C(=O)Nc1cnn2cccnc12 (single isomer, unassigned) [Example 60]"
  IC50 [nM]: 0.8
- molecule: "COc1cc2nn([C@H]3CC[C@H](N(C)C(=O)N4CC[C@H](O)C4)CC3)cc2cc1C(=O)Nc1cnc2cccnn12"
  IC50 [nM]: 0.3
- molecule: "COc1cc2nn([C@H]3CC[C@@]4(CCC(=O)N4C)CC3)cc2cc1C(=O)Nc1cnc2cccnn12"
  IC50 [nM]: 0.1

// next item, IC50 requested
Task: Returns the measured IC50 for the input molecule. Input: COc1cc2nn(C3CCC(N(C)C(=O)[C@H]4C[C@H](O)C4)CC3)cc2cc1C(=O)Nc1cnn2cccnc12 (stereo partly drawn)
Output: 0.7

====

- experimental.target: IRAK4 auto-phosphorylation (Homo sapiens (Human))
- assay.summary: IRAK4 phosphorylation cell assay in IL-1β-stimulated Karpas-299 cells
- run.conditions: IL-1β 22.7 ng/mL, pIRAK4 (Thr345/Ser346), geometric mean of at least 2 experiments
readout.name: IC50 (nM)
Response body: numeric value in nM, unit text excluded.

- compound: "COc1cc2nn(C3CCC4(CC3)COCC(=O)N4C)cc2cc1C(=O)Nc1cnn2cccnc12 (single isomer, unassigned) [Example 118]"
  experimental.target: "IRAK4 auto-phosphorylation (Homo sapiens (Human))"
  IC50, nM: 199
- compound: "COc1cc2nn([C@H]3CC[C@H](n4nccn4)CC3)cc2cc1C(=O)Nc1cnc2cccnn12"
  experimental.target: "IRAK4 auto-phosphorylation (Homo sapiens (Human))"
  IC50, nM: 17

// next item, IC50 requested
Task: Returns the measured IC50 for the input compound. Input: COc1cc2nn([C@H]3CC[C@H](O)CC3)cc2cc1C(=O)Nc1cnc2cccnn12
Output: 58
